Overview of recorded koff for various binders
# targetUnderTest: T1, GST-human NOGO-A56 (human)
# T1 construct: Expressed in E. coli BL21 from pGEX-6P1 and purified on glutathione-sepharose; the GST tag is part of the protein in the assays; also called GST-Nogo-A 5+6; GST Nogo-A 5 + 6
# T1 sequence (chain, as listed by the source limits assumed): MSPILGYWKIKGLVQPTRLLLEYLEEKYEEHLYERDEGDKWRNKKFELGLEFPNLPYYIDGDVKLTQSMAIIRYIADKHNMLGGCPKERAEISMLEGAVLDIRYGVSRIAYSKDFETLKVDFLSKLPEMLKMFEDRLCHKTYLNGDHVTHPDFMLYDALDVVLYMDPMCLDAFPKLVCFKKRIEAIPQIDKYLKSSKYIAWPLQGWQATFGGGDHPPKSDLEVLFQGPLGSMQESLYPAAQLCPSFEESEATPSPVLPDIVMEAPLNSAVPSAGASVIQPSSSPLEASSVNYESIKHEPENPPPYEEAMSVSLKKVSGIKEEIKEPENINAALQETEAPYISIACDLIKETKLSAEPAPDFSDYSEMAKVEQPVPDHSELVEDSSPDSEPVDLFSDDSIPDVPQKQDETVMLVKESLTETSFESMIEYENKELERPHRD
# procedureDetails: SPR (Biacore), GST-human NOGO-A56 amine-coupled to CM5, antibody flowed over, 25 C

[
  {
    "binder": "HcLc (chimera of 2A10: murine 2A10 VH and VL with human IgG constant regions) (antibody, V domains shown, also called chimeric antibody; chimeric form of the parental antibody) VH: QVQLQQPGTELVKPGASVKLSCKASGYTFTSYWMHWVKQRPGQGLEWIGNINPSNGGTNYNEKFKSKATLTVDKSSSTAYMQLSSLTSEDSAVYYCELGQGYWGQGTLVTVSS VL: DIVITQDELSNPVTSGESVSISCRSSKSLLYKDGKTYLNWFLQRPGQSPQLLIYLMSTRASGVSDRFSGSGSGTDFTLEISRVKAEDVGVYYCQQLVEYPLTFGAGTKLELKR",
    "units": "s⁻¹",
    "koff": 0.00249
  },
  {
    "binder": "H27L16 (antibody, human IgG1, kappa, V domains shown, IgG1 (L235A, G237A) / kappa; CAMPATH-1H signal (1-19) left out; also called H27FL L16FL) VH: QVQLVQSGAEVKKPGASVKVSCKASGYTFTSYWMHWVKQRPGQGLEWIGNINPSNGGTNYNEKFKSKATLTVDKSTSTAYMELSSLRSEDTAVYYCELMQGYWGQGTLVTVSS VL: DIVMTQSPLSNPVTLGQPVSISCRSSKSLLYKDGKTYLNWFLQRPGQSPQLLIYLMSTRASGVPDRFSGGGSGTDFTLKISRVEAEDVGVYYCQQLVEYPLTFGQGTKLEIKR",
    "units": "s⁻¹",
    "koff": 0.00121
  },
  {
    "binder": "H27L13 (antibody, human IgG1, kappa, V domains shown, IgG1 (L235A, G237A) / kappa; CAMPATH-1H signal (1-19) left out) VH: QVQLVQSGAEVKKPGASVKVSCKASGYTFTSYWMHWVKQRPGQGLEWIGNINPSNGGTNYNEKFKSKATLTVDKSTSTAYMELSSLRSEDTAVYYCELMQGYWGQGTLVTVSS VL: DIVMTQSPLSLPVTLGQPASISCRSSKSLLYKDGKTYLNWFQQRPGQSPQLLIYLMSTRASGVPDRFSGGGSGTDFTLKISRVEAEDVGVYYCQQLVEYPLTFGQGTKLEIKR",
    "units": "s⁻¹",
    "koff": 0.0018
  },
  {
    "binder": "H28L13 (antibody, human IgG1, kappa, V domains shown, IgG1 (L235A, G237A) / kappa; CAMPATH-1H signal (1-19) left out; also called H28FL L13FL) VH: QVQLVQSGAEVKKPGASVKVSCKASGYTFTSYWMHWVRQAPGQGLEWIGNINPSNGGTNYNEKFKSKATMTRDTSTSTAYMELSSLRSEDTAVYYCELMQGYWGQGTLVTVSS VL: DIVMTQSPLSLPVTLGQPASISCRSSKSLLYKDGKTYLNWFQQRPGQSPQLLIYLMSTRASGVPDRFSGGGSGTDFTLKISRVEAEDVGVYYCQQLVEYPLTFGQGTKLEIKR",
    "units": "s⁻¹",
    "koff": 0.0033
  },
  {
    "binder": "H26L13 (antibody, human IgG1, kappa, V domains shown, H26 FL is H6 FL with G95M (Kabat); IgG1 (L235A, G237A) / kappa; CAMPATH-1H signal (1-19) left out; also called H6(G95M)L13; H6L13 with VH CDR3 MQGY) VH: QVQLVQSGAEVKKPGASVKVSCKASGYTFTSYWMHWVRQAPGQGLEWIGNINPSNGGTNYNEKFKSRATMTRDTSTSTAYMELSSLRSEDTAVYYCELMQGYWGQGTLVTVSS VL: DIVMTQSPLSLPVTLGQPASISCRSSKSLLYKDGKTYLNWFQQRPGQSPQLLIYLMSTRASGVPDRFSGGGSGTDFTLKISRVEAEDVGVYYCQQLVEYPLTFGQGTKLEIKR",
    "units": "s⁻¹",
    "koff": 0.00311
  }
]
